Source: the OPERA property sets (Mansouri et al. 2018)

STUDY_CONDITIONS: 25.0 °C
READOUT_NAME: log10 OH rate constant (cm³/molecule/s)
Give a plain numeric answer without units written out.

# count of solved cases: 2
log10 OH rate constant (cm³/molecule/s) for `Cc1cc2ccccc2cc1C` ?
-10.2

log10 OH rate constant (cm³/molecule/s) for `CCCCCCBr` ?
-11.2

New cases:
log10 OH rate constant (cm³/molecule/s) for `CCCBr` ?
-11.9

log10 OH rate constant (cm³/molecule/s) for `CCNc1nc(Cl)nc(NCC)n1` ?
-11

log10 OH rate constant (cm³/molecule/s) for `CC(C)CC(=O)CC(C)C` ?
-10.6

log10 OH rate constant (cm³/molecule/s) for `O=CCCl` ?
-11.5
